- ASSAY SUMMARY: Pharmacokinetic study in SD rats (intravenous injection and intragastric administration)
- Assay type: in vivo, Sprague Dawley (SD) rats
- CONDITION NOTES: male, Sprague-Dawley, rat, plasma, Oral (10 mg/kg) vs Injection (1 mg/kg), read-out: Bioavailability F(%)
Returns true if the recorded bioavailability is greater than or equal to 50%, and false otherwise.

MOLECULE | CATEGORY
COc1ccc2c(c1OCc1ccccc1)C[C@@H](C(=O)O)N(C(=O)C(c1ccccc1)c1ccccc1)C2 [olodanrigan, reference compound] | false
COc1ccc2c(c1OCc1ccccc1)CC(C(=O)NS(=O)(=O)N(C)C)N(c1nc3ccccc3o1)C2 (stereo not shown) | true
COc1ccc2c(c1OCc1ccccc1)C[C@@H](C(=O)O)N(c1nc3ccc(C#N)cc3o1)C2 | false
COc1ccc(COc2c(OC)ccc3c2C[C@@H](C(=O)O)N(c2nc4ccc(F)cc4o2)C3)cn1 | false
COc1ccc2c(c1OCc1ccccc1)C[C@@H](C(=O)O)N(c1nc3ccncc3o1)C2 | false
COc1ccc(COc2c(OC)ccc3c2C[C@@H](C(=O)O)N(c2nc4ccc(F)cc4o2)C3)cc1 | false
COc1ccc(COc2c(OC)ccc3c2C[C@@H](C(=O)O)N(c2nc4ccc(F)cc4o2)C3)nc1 | true

----------
- ASSAY SUMMARY: Pharmacokinetic study in SD rats (intravenous injection and intragastric administration)
- Assay type: in vivo, Sprague Dawley (SD) rats
- CONDITION NOTES: male, Sprague-Dawley, rat, plasma, iv, Injection (1 mg/kg), tail vein, read-out: Half-life T1/2 (converted)

MOLECULE | UNITS TEXT | half-life
COc1ccc2c(c1OCc1ccccc1)CC(C(=O)NS(=O)(=O)N(C)C)N(c1nc3ccccc3o1)C2 (stereo not shown) [Example 9] | min | 78
COc1ccc(COc2c(OC)ccc3c2C[C@@H](C(=O)O)N(c2nc4ccc(F)cc4o2)C3)nc1 [Example 36] | min | 288
COc1ccc2c(c1OCc1ccccc1)C[C@@H](C(=O)O)N(c1nc3ccncc3o1)C2 [Example 22] | min | 120
COc1ccc2c(c1OCc1ccccc1)C[C@@H](C(=O)O)N(C(=O)C(c1ccccc1)c1ccccc1)C2 [olodanrigan, reference compound] | min | 96

----------
- ASSAY SUMMARY: Pharmacokinetic study in SD rats (intravenous injection and intragastric administration)
- Type: in vivo, Sprague Dawley (SD) rats
- CONDITION NOTES: male, Sprague-Dawley, rat, plasma, Oral (10 mg/kg), read-out: residence time MRT
Sorting guide: entries reporting MRT beneath 4 h go in the True pile, the rest go in the False pile.

COMPOUND | CATEGORY
COc1ccc2c(c1OCc1ccccc1)CC(C(=O)NS(=O)(=O)N(C)C)N(c1nc3ccccc3o1)C2 (centres unmarked) | True
COc1ccc(COc2c(OC)ccc3c2C[C@@H](C(=O)O)N(c2nc4ccc(F)cc4o2)C3)nc1 | False
COc1ccc2c(c1OCc1ccccc1)C[C@@H](C(=O)O)N(c1nc3ccncc3o1)C2 | True
COc1ccc2c(c1OCc1ccccc1)C[C@@H](C(=O)O)N(c1nc3ccc(C#N)cc3o1)C2 | False
COc1ccc2c(c1OCc1ccccc1)C[C@@H](C(=O)O)N(C(=O)C(c1ccccc1)c1ccccc1)C2 [olodanrigan, reference compound] | True
COc1ccc(COc2c(OC)ccc3c2C[C@@H](C(=O)O)N(c2nc4ccc(F)cc4o2)C3)cn1 | False
COc1ccc2c(c1OCc1ccccc1)C[C@@H](C(=O)O)N(c1nc3ccc(F)cc3o1)C2 | False
COc1ccc(COc2c(OC)ccc3c2C[C@@H](C(=O)O)N(c2nc4ccc(F)cc4o2)C3)cc1 | True
